Cited source: ChEMBL document CHEMBL2034836

# Test system: Human immunodeficiency virus 1
# measurement_notes: Antiviral activity against HIV1 3B infected in HeLa P4/R5 cells assessed as reduction of viral infection incubated for 2 hrs followed by incubated in drug-free medium for 46 hrs by single round infection beta-galactosidase reporter gene assay
# Assay type: functional, organism-based
# condition: Human immunodeficiency virus 1, 3B
Cut-off 10 µM on EC50: below means YES, at or above means NO.

smiles_entry	answer_label
CC(=O)N[C@@H](CCC(=O)OC[C@H]1O[C@@H](n2cc(C)c(=O)[nH]c2=O)C[C@@H]1F)C(=O)OC[C@@H]1O[C@H](n2ccc(N)nc2=O)CS1	NO
CCCCCCCCCCCCCC(=O)NCCCC[C@H](NC(=O)CCNC(=O)[C@H](CCC(=O)OC[C@H]1O[C@@H](n2cc(C)c(=O)[nH]c2=O)C[C@@H]1F)NC(C)=O)C(=O)O	NO
CCCCCCCCCCCCCC(=O)NCCCC[C@H](NC(=O)[C@H](CCC(=O)OC[C@H]1O[C@@H](n2cc(C)c(=O)[nH]c2=O)C[C@@H]1F)NC(=O)CCCCCCCCCCCCC)C(=O)O	NO
CCCCCCCCCCCCCC(=O)N[C@@H](CCC(=O)OC[C@H]1O[C@@H](n2cc(C)c(=O)[nH]c2=O)C[C@@H]1N=[N+]=[N-])C(=O)OC[C@@H]1O[C@H](n2ccc(N)nc2=O)CS1	YES
CCCCCCCCCCCCCC(=O)OC[C@H](NC(C)=O)C(=O)NCCC(=O)N[C@@H](CCC(=O)OC[C@H]1O[C@@H](n2cc(C)c(=O)[nH]c2=O)C[C@@H]1F)C(=O)NCC(=O)O	NO
Cc1cn([C@H]2C[C@H](N=[N+]=[N-])[C@@H](CO)O2)c(=O)[nH]c1=O	NO
CCCCCCCCCCCCCC(=O)N[C@@H](CCC(=O)OC[C@@H]1O[C@H](n2cc(F)c(N)nc2=O)CS1)C(=O)OC[C@H]1O[C@@H](n2cc(C)c(=O)[nH]c2=O)C[C@@H]1F	YES
Cc1cn([C@H]2C[C@H](N=[N+]=[N-])[C@@H](COC(=O)CC[C@H](NC(=O)CCC(=O)OC[C@H]3O[C@@H](n4cc(C)c(=O)[nH]c4=O)C[C@@H]3F)C(=O)OC[C@@H]3O[C@H](n4ccc(N)nc4=O)CS3)O2)c(=O)[nH]c1=O	YES
Nc1ccn([C@@H]2CS[C@H](CO)O2)c(=O)n1	NO
CC(=O)N[C@@H](CCC(=O)OC[C@H]1O[C@@H](n2cc(C)c(=O)[nH]c2=O)C[C@@H]1N=[N+]=[N-])C(=O)OC[C@@H]1O[C@H](n2ccc(N)nc2=O)CS1	NO
Cc1cn([C@H]2C[C@H](F)[C@@H](CO)O2)c(=O)[nH]c1=O	YES
CCCCCCCCCCCCCC(=O)N[C@@H](CCC(=O)OC[C@@H]1O[C@H](n2ccc(N)nc2=O)CS1)C(=O)OC[C@H]1O[C@@H](n2cc(C)c(=O)[nH]c2=O)C[C@@H]1F	YES

###

# Test system: Human immunodeficiency virus 1
# measurement_notes: Antiviral activity against HIV1 3B infected in HeLa P4/R5 cells assessed as reduction of viral infection incubated for 2 hrs followed by incubated in drug-free medium for 46 hrs by single round infection beta-galactosidase reporter gene assay
# Format: functional, organism-based
# condition: Human immunodeficiency virus 1, 3B
EC50 values for the compounds below.

smiles_entry	EC50, µM
CCCCCCCCCCCCCC(=O)OC[C@H](NC(C)=O)C(=O)NCCC(=O)N[C@@H](CCC(=O)OC[C@H]1O[C@@H](n2cc(C)c(=O)[nH]c2=O)C[C@@H]1N=[N+]=[N-])C(=O)NCC(=O)O	63.1
CC(=O)N[C@@H](CCC(=O)OC[C@H]1O[C@@H](n2cc(C)c(=O)[nH]c2=O)C[C@@H]1F)C(=O)OC[C@H]1O[C@@H](n2cc(C)c(=O)[nH]c2=O)C[C@@H]1N=[N+]=[N-]	13.5
CCCCCCCCCCCCCC(=O)N[C@@H](CCC(=O)OC[C@H]1O[C@@H](n2cc(C)c(=O)[nH]c2=O)C[C@@H]1F)C(=O)OC[C@H]1O[C@@H](n2cc(C)c(=O)[nH]c2=O)C[C@@H]1N=[N+]=[N-]	2.4
CCCCCCCCCCCCCC(=O)N[C@@H](CCC(=O)OC[C@H]1O[C@@H](n2cc(C)c(=O)[nH]c2=O)C[C@@H]1F)C(=O)OC[C@@H]1O[C@H](n2ccc(N)nc2=O)CS1	2
Nc1nc(=O)n([C@@H]2CS[C@H](CO)O2)cc1F	2
CCCCCCCCCCCCCC(=O)N[C@@H](CCC(=O)O)C(=O)OC[C@H]1O[C@@H](n2cc(C)c(=O)[nH]c2=O)C[C@@H]1F	6.3
